Biological target: Carbonic anhydrase 4 (Homo sapiens, UniProt P22748)
Sequence (P22748 whole entry): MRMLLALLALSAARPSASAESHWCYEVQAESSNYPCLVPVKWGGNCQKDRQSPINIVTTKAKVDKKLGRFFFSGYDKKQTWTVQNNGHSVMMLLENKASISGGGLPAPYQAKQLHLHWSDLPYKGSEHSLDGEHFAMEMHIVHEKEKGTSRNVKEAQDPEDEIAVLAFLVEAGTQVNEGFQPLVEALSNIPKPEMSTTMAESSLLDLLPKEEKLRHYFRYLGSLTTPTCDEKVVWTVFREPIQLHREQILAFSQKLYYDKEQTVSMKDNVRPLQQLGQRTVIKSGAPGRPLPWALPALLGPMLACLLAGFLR
Assay: Inhibition of recombinant human CA4 pre-incubated for 15 mins by phenol red dye based stopped flow CO2 hydration assay
quantity: Ki (nM)

Sample answers from the record:
# compound-smiles, assay-target, meas-value
data = [
    ("NS(=O)(=O)c1ccc(CCN(Cc2ccc(Cl)cc2)C(=O)c2ccc(-c3cssc3=S)cc2)cc1", "Carbonic anhydrase 4 (Homo sapiens, UniProt P22748)", 430),
    ("COc1cc([N+](=O)[O-])ccc1CN(CCc1ccc(S(N)(=O)=O)cc1)C(=O)c1ccc(-c2cssc2=S)cc1", "Carbonic anhydrase 4 (Homo sapiens, UniProt P22748)", 4090),
    ("CN(C)c1ccc(CN(CCc2ccc(S(N)(=O)=O)cc2)C(=O)c2ccc(-c3cssc3=S)cc2)cc1", "Carbonic anhydrase 4 (Homo sapiens, UniProt P22748)", 3410),
    ("NS(=O)(=O)c1ccc(CCN(CCc2ccccc2)C(=O)c2ccc(-c3cssc3=S)cc2)cc1", "Carbonic anhydrase 4 (Homo sapiens, UniProt P22748)", 243),
    ("NS(=O)(=O)c1ccc(CCN(Cc2cccc3ccccc23)C(=O)c2ccc(-c3cssc3=S)cc2)cc1", "Carbonic anhydrase 4 (Homo sapiens, UniProt P22748)", 244),
]

a: COc1ccc(CN(CCc2ccc(S(N)(=O)=O)cc2)C(=O)c2ccc(-c3cssc3=S)cc2)cc1OC
b: N#CCCN(CCc1ccc(S(N)(=O)=O)cc1)C(=O)c1ccc(-c2cssc2=S)cc1
c: N#Cc1ccc(CN(CCc2ccc(S(N)(=O)=O)cc2)C(=O)c2ccc(-c3cssc3=S)cc2)cc1
d: NS(=O)(=O)c1ccc(CCN(Cc2ccccc2)C(=O)c2ccc(-c3cssc3=S)cc2)cc1
Exam item: list the entries in increasing order of Ki. Put the labels in the order asked and list them.
Marked response: c, a, b, d

----------
Molecular target: Carbonic anhydrase 4 (Homo sapiens)
Test: Inhibition of recombinant human CA4 pre-incubated for 15 mins by phenol red dye based stopped flow CO2 hydration assay
pKi: −log10 of the molar value.
quantity: pKi

# compound-smiles, quantity, meas-value
rows = [
    ("NS(=O)(=O)c1ccc(CCN(Cc2ccc(Br)cc2)C(=O)c2ccc(-c3cssc3=S)cc2)cc1", "pKi", 5.98),
]

1: NS(=O)(=O)c1ccc(CCN(Cc2csc3ccccc23)C(=O)c2ccc(-c3cssc3=S)cc2)cc1
2: COc1ccc(CN(CCc2ccc(S(N)(=O)=O)cc2)C(=O)c2ccc(-c3cssc3=S)cc2)cc1
Exam item: Which record shows the lower pKi: the first, 1 , or the second, 2 ? Write the label of whichever entry you select.
Marked response: 2
(2: 5.80, 1: 7.32)

----------
Biological target: Carbonic anhydrase 2 (Homo sapiens)
Experiment: Inhibition of recombinant human CA2 pre-incubated for 15 mins by phenol red dye based stopped flow CO2 hydration assay
pKi: −log10 of the molar value.
quantity: pKi

Sample answers from the record:
# compound-smiles, assay-target, pKi
rows = [
    ("NS(=O)(=O)c1ccc(CCN(Cc2ccc([N+](=O)[O-])cc2)C(=O)c2ccc(-c3cssc3=S)cc2)cc1", "Carbonic anhydrase 2 (Homo sapiens)", 6.04),
    ("COc1ccc(CN(CCc2ccc(S(N)(=O)=O)cc2)C(=O)c2ccc(-c3cssc3=S)cc2)cc1", "Carbonic anhydrase 2 (Homo sapiens)", 6.23),
]

1: NS(=O)(=O)c1ccc(CCN(CCc2ccccc2)C(=O)c2ccc(-c3cssc3=S)cc2)cc1
2: COc1cc([N+](=O)[O-])ccc1CN(CCc1ccc(S(N)(=O)=O)cc1)C(=O)c1ccc(-c2cssc2=S)cc1
Exam item: Kindly identify which of 1 and 2 has the larger recorded pKi value. Write the label of whichever entry you select.
Marked response: 1
(1: 6.18, 2: 5.53)

----------
Target: Carbonic anhydrase 1 (Homo sapiens)
Sequence (P00915 whole entry): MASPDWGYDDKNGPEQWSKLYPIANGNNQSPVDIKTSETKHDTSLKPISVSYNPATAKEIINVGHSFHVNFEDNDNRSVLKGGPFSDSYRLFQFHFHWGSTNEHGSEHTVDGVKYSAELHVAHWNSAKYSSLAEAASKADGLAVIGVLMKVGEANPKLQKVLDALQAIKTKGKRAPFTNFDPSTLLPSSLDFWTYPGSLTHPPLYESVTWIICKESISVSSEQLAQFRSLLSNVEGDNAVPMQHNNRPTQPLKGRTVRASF
Experiment: Inhibition of recombinant human CA1 pre-incubated for 15 mins by phenol red dye based stopped flow CO2 hydration assay
quantity: Ki

# compound-smiles, assay-target, meas-value
rows = [
    ("NS(=O)(=O)c1ccc(CCN(Cc2cccc3ccccc23)C(=O)c2ccc(-c3cssc3=S)cc2)cc1", "Carbonic anhydrase 1 (Homo sapiens)", "> 10 µM"),
    ("NS(=O)(=O)c1ccc(CCN(Cc2csc3ccccc23)C(=O)c2ccc(-c3cssc3=S)cc2)cc1", "Carbonic anhydrase 1 (Homo sapiens)", "> 10 µM"),
]

Exam item: Recall and state the measured Ki for `N#Cc1ccc(CN(CCc2ccc(S(N)(=O)=O)cc2)C(=O)c2ccc(-c3cssc3=S)cc2)cc1` .
Marked response: > 10 µM
